Kindly state inhibition for each of the entries shown.
test: TNF-a-driven NF-kB reporter inhibitors, primary screen, selectivity assay for NOD1/NOD2 signaling inhibitor project, cell-based, HEK293T NF-kB-Luc, luminescence (AID 1852); details: TNF-a induced, 14 h, at 4 µM, active compounds read high
Hit rate of the full screen: of about 2,500 compounds, about 1,100 (44%) were called active. So high a share suggests a set chosen from earlier hits. Some of the results follow.

# input Fill in the blank: the reported inhibition of `Cc1ccc(C(=O)N2CCN(c3ccc(F)cc3)CC2)cc1S(=O)(=O)N1CCCCC1` is ____.
# output 43.8% (inactive)

# input Would you kindly repeat that for `COc1ccc(C2=Nn3c(nnc3-c3ccncc3)SC2)cc1` ?
# output 70.4% (active)

# input Would you kindly repeat that for `c1ccc(C2=Nn3c(nnc3-c3ccncc3)SC2)cc1` ?
# output 70.9% (active)

# input Would you kindly repeat that for `Nc1nn2c(-c3ccccc3)cc(=O)[nH]c2c1N=Nc1ccc(O)cc1` ?
# output -17.5% (inactive)

# input Would you kindly repeat that for `CCc1nc2ccccc2c(C(=O)OCC(=O)Nc2cccc(S(=O)(=O)N3CCOCC3)c2)c1C` ?
# output -0.6% (inactive)

# input Would you kindly repeat that for `Nc1nn2c(-c3ccccc3)cc(=O)[nH]c2c1N=Nc1ccc(Br)cc1` ?
# output 78.7% (active)

# input Would you kindly repeat that for `O=C(CN1CCN(c2cccc(Cl)c2)CC1)Nc1ccc(S(=O)(=O)N2CCOCC2)cc1` ?
# output 23.3% (inactive)

# input Would you kindly repeat that for `Cc1oc2c(c1C(=O)NCc1cccnc1)C(=O)c1ccccc1C2=O` ?
# output 97.7% (active)

# input Would you kindly repeat that for `CCN(CC)S(=O)(=O)c1cccc(NC(=O)CNc2cccc(S(=O)(=O)N3CCCC3)c2)c1` ?
# output 41.7% (inactive)

# input Would you kindly repeat that for `CN(C)S(=O)(=O)c1cccc(NC(=O)CSc2cccc3cccnc23)c1` ?
# output 100% (active)

====

experiment: TNF-a-driven NF-kB reporter inhibitors, primary screen, selectivity assay for NOD1/NOD2 signaling inhibitor project, cell-based, HEK293T NF-kB-Luc, luminescence (AID 1852); conditions: TNF-a induced, 14 h, at 4 µM
Out of some 2,500 compounds screened, about 1,100 (44%) were called active.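 Rule for the calls: active = inhibition above 50% at 4 µM in the single-point screen; inactive = inhibition of 50% or less.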 So high a share suggests a set chosen from earlier hits. Some of the results follow.
Your reply should match one of these outcome classes. active, inactive

# input For `CC(=O)c1c(C)n(-c2ccccc2)c2ccc(O)cc12` , what call appears in the results of this test?
# output active

# input Would you kindly repeat that for `CCNC(=O)/C(C#N)=C/c1c(N2CCN(c3ccc(OC)cc3)CC2)nc2c(C)cccn2c1=O` ?
# output inactive

# input Would you kindly repeat that for `CCc1ccc(S(=O)(=O)Nc2cc(SCC(=O)O)c(O)c3ccccc23)cc1` ?
# output inactive

# input Would you kindly repeat that for `O=C(OCn1ncc(Br)c(Br)c1=O)c1c(F)cccc1F` ?
# output active

# input Would you kindly repeat that for `Cc1ccc(O)c(C(=O)c2cnc3c(c2)COc2ccc(C)cc2-3)c1` ?
# output inactive

# input Would you kindly repeat that for `O=S(=O)(c1ccc(Cl)cc1)c1snnc1-c1ccccc1` ?
# output inactive

# input Would you kindly repeat that for `Cc1nc(N2CCN(c3ccccn3)CC2)c2c(C)c(C(=O)N3CCN(c4ccc(F)cc4)CC3)sc2n1` ?
# output inactive

# input Would you kindly repeat that for `Cc1ccc(C)c(S(=O)(=O)Nc2cc(SCC(=O)O)c(O)c3ccccc23)c1` ?
# output active

# input Would you kindly repeat that for `CN(c1ccc(C(=O)Nc2ccccc2C(=O)N2CCOCC2)cc1)S(C)(=O)=O` ?
# output inactive

# input Would you kindly repeat that for `COc1ccc(S(=O)(=O)Nc2cc(SCC(=O)O)c(O)c3ccccc23)cc1` ?
# output active

# input Would you kindly repeat that for `O=C(c1cnn(C(=O)c2ccc(O)cc2)c1)c1ccccc1O` ?
# output inactive

# input Would you kindly repeat that for `CC(=O)Cn1ncc(Br)c(Br)c1=O` ?
# output active

# input Would you kindly repeat that for `O=C(Nc1ccc2nc3n(c(=O)c2c1)CCCCC3)c1c(F)ccc([N+](=O)[O-])c1F` ?
# output active

# input Would you kindly repeat that for `CC(=O)N(c1ccccc1Cl)S(=O)(=O)c1ccc(Cl)cc1` ?
# output inactive

# input Would you kindly repeat that for `O=c1c2ccccc2nc(/C=C/c2ccc([N+](=O)[O-])o2)n1CCCO` ?
# output active

# input Would you kindly repeat that for `Cc1cccc(C(=O)Nc2scc(CC(C)C)c2C(=O)O)c1` ?
# output inactive

# input Would you kindly repeat that for `COc1ccc(S(=O)(=O)c2c(O)cc(C)c(NS(=O)(=O)c3ccccc3)c2C)cc1` ?
# output inactive

# input Would you kindly repeat that for `Cc1cc(C)cc(OCC(=O)Nc2nc3ccc([N+](=O)[O-])cc3s2)c1` ?
# output inactive

# input Would you kindly repeat that for `Cc1ccc(-c2n[nH]c(=O)c3ccccc23)cc1S(=O)(=O)Nc1ccccc1` ?
# output inactive

# input Would you kindly repeat that for `O=c1c2ccccc2nc(/C=C/c2cc(Br)ccc2O)n1CCCO` ?
# output active

# input Would you kindly repeat that for `CC1CCN(c2ccc(-c3cccc(NC(=O)C(F)(F)F)c3)nn2)CC1` ?
# output inactive

# input Would you kindly repeat that for `O=C(OCn1ncc(Br)c(Br)c1=O)c1ccc(F)cc1` ?
# output active
